Value source: patent US20200131144A1

Biological target: LXRα ligand-binding domain (LBD) (Homo sapiens)
Sequence (Q13133 155-447): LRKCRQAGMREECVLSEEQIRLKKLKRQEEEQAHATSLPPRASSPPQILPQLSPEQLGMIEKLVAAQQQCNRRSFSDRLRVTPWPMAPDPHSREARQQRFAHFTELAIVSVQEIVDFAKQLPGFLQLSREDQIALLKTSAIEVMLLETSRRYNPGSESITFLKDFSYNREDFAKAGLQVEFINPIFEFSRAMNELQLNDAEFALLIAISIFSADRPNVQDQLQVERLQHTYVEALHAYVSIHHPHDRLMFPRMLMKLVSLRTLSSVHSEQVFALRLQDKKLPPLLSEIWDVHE
Assay: LXR Gal4 reporter transient transfection assay, mammalian two-hybrid, LBD-M2H Gal4α
Details: HEK293 cells; inverse agonist unless *

{"cpd smiles": "Cc1cc(C)c(C(=O)N(Cc2ccc(-c3cccc(OCC(=O)O)c3)cc2)Cc2ccc(C(F)(F)F)o2)c(C)c1", "assayed system": "LXRα ligand-binding domain (LBD) (Homo sapiens)", "EC50": "100 to 1000 nM"}
{"cpd smiles": "Cc1ccc2ccccc2c1CN(Cc1ccc(-c2cccc(C(C)(C)C(=O)O)n2)cc1)Cc1ccc(C(F)(F)F)o1", "assayed system": "LXRα ligand-binding domain (LBD) (Homo sapiens)", "EC50": "100 to 1000 nM"}
{"cpd smiles": "COC(=O)CS(=O)(=O)c1cc(-c2ccc(CN(Cc3ccc(C(F)(F)F)o3)Cc3c(C)cc(C)cc3C)cc2)cc(F)c1CO", "assayed system": "LXRα ligand-binding domain (LBD) (Homo sapiens)", "EC50": "1000 to 10000 nM"}
{"cpd smiles": "Cc1cc(C)c(C(=O)N(Cc2ccc(-c3cccc(CCC(=O)O)c3)cc2)Cc2ccc(C(F)(F)F)o2)c(C)c1", "assayed system": "LXRα ligand-binding domain (LBD) (Homo sapiens)", "EC50": "100 to 1000 nM"}
{"cpd smiles": "Cc1ccc2ccccc2c1CN(Cc1ccc(-c2cccc(CC(C)(C)C(=O)O)c2)cc1)Cc1ccc(C(F)(F)F)o1", "assayed system": "LXRα ligand-binding domain (LBD) (Homo sapiens)", "EC50": "100 to 1000 nM"}
{"cpd smiles": "CC(C)(C(=O)O)c1cccc(-c2ccc(CN(Cc3ccc(C(F)(F)F)o3)Cc3c(OC(F)F)ccc4ccccc34)cc2)c1", "assayed system": "LXRα ligand-binding domain (LBD) (Homo sapiens)", "EC50": "< 100 nM"}
{"cpd smiles": "COc1cc(-c2cccc(C(C)(C)C(=O)O)c2)ccc1CN(Cc1ccc(C(F)(F)F)o1)Cc1c(C)ccc2ccccc12", "assayed system": "LXRα ligand-binding domain (LBD) (Homo sapiens)", "EC50": "< 100 nM"}

====

Assay: Short term HFD mouse model: liver and plasma exposure after multiple oral dosing
Assay type: in vivo, mice (C57BL/6J)
Conditions: C57BL/6J, plasma, HFD mice, three oral doses of 10 mg/kg each, 4 h after final dose, read-out: plasma exposure, 4 h
attribute measured: concentration at 4 h (nM)

{"compound": "Cc1nc2ccccc2c(C(=O)N(Cc2ccc(-c3cccc(C(C)(C)C(=O)O)c3)cc2)Cc2ccc(C(F)(F)F)o2)c1C", "unit annotation": "nM", "measurement": 931}
{"compound": "Cc1ccc2ccccc2c1C(=O)N(Cc1ccc(-c2cc(F)cc(C3(C(=O)O)CC3)c2)cc1)Cc1ccc(C(F)(F)F)o1", "unit annotation": "nM", "measurement": 2310}
{"compound": "COc1c(C)nc2ccccc2c1C(=O)N(Cc1ccc(-c2cccc(C(C)(C)C(=O)O)c2)cc1)Cc1ccc(C(F)(F)F)o1", "unit annotation": "nM", "measurement": 849}
{"compound": "Cc1ccc2ccccc2c1CN(Cc1ccc(-c2cccc([C@@H](C)C(=O)O)c2)cc1)Cc1ccc(C(F)(F)F)o1", "unit annotation": "nM", "measurement": 1440}
{"compound": "Cc1ccc2ccccc2c1C(=O)N(Cc1ccc(-c2cccc(C(C)(O)C(=O)O)c2)cc1)Cc1ccc(C(F)(F)F)o1 (centres unmarked)", "unit annotation": "nM", "measurement": 1440}
